# PROTOCOL_NOTES: qHTS Assay for Inhibitors of the ERK Signaling Pathway using a Homogeneous Screening Assay; Stimulation with EGF; also: nearly all actives have a fitted effect of over 55% in size
# TEST_CONDITIONS: HEK293-V1b, EGF-stimulated phospho-ERK AlphaScreen; series mostly up to 11.5 µM
The whole screen tested about 130,000 compounds, of which about 550 (0.42%) were called active. About 4% were inconclusive and are not listed. Calls follow the shape of the dose curve; as a rule, active = well fitted inhibition curve with a large enough effect; inconclusive = small, poorly fitted or top-dose-only effect, or effect the other way; inactive = flat fitted curve, though single readings scatter. Many of the other results were omitted from the sample, so actives are more common in it than they were.
Returns: one label drawn from true for active, false for inactive

Known results for molecules:
- O=C(COC(=O)c1ccc(S(=O)(=O)Nc2ccccc2)cc1)NCC1CCCO1 (centres undefined): false
- COC(=O)c1ccc(NC(=S)NN2CCOCC2)cc1: false
- CN(C)c1cc2c(Nc3ccc4c(cnn4Cc4ccccc4)c3)ncnc2cn1: true
- CCOCCCNC(=O)C(NC(=O)Cc1c[nH]c2ccccc12)c1ccc(OC)cc1 (centres undefined): false
- Cc1nn(-c2ccccc2)c(Cl)c1/C=C/C(=O)c1ccc(O)cc1: true

Which outcome was entered for the molecule O=C(NC1(C(F)(F)F)NC(=O)N(C2CCCCC2)C1=O)c1ccco1 (centres undefined) in this test?
false

Which outcome was entered for the molecule `Clc1ccc(Nc2ncnc3c2nnn3Cc2ccccc2)cc1` in this test?
false

Which outcome was entered for the molecule `Cc1cccc(N=Nc2c(C)[nH]n(-c3ccccc3)c2=O)c1` in this test?
true

Which outcome was entered for the molecule `Cc1nn(CC(=O)N/N=C/c2ccc(F)cc2)c(C)c1[N+](=O)[O-]` in this test?
false

Which outcome was entered for the molecule `O=C(CC(=O)N/N=C\c1ccc(F)cc1)NCCc1ccccc1` in this test?
false

Which outcome was entered for the molecule `CN1CCN(/N=C2/C(=O)Nc3ccc([N+](=O)[O-])cc32)CC1` in this test?
false

====

# PROTOCOL_NOTES: qHTS Assay for Inhibitors of the ERK Signaling Pathway using a Homogeneous Screening Assay; Stimulation with EGF; also: nearly all actives have a fitted effect of over 55% in size
# TEST_CONDITIONS: HEK293-V1b, EGF-stimulated phospho-ERK AlphaScreen; series mostly up to 11.5 µM
# Experimental: NIH Chemical Genomics Center [NCGC] NIH Molecular Libraries Screening Centers Network [MLSCN] Assay Submitter (PI): Dr. Wei Zheng, NCGC/NIH […] HEK293 cells stably expressing type-1 vasopressin receptor (V1b) were maintained in DMEM medium (Invitrogen, Carlsbad, CA) at 37C under a humidified atmosphere containing 5% CO2 and 95% air. […] The ERK phosphorylation in cells was determined using an AlphaScreen assay kit provided by PerkinElmer. […]
The whole screen tested about 130,000 compounds, of which about 550 (0.42%) were called active. Not shown: some 4% with an inconclusive outcome. The entries come from a sample that favours actives as a whole.
QUANTITY_MEASURED: outcome

Below, each entry is followed by its recorded outcome result.
- Fc1ccc(-c2csc(-c3ccc(C4SCCS4)cc3)n2)cc1F: inactive
- O=C(Nc1ccc2oc(-c3ccccc3F)nc2c1)c1ccco1: inactive
- NS(=O)(=O)c1ccc(CCNC(=O)c2ccc(Cl)cc2[N+](=O)[O-])cc1: inactive
- O=C(NNC(=S)NC(=O)c1cn(-c2ccccc2)nc1-c1ccccc1)c1ccncc1: inactive
- Cc1cc(C)nc(NC(=O)/C=C/c2ccc(Cl)cc2)n1: inactive

Value sought for every listed molecule: outcome.
1. O=C(N/N=C1\CCSC1)c1cc(Cl)ccc1O
2. CCN(CC)CCCNC(=O)Cn1cnc2sc(C)c(S(=O)(=O)N3CCN(c4ncccn4)CC3)c2c1=O
3. O=C(NNC(=O)c1cnccc1C(F)(F)F)c1ccc(Cl)cc1
4. CCOC(=O)c1c(C)oc(C)c(C(=O)OCC)c1=O

1: inactive; 2: inactive; 3: inactive; 4: inactive

Value sought for every listed molecule: outcome.
1. O=C(CSc1nnnn1-c1ccc(O)cc1)c1ccc(F)cc1
2. Nc1nnc(SCn2nnc3ccccc3c2=O)s1

["inactive", "inactive"]
